Data origin: patent US4816490A

# method description: Acute toxicity after single oral administration
# Type: in vivo
# measurement setup: mouse, in vivo, po
endpoint label: LD50 (mg/kg)
Answer with a number only, understood to be in mg/kg.

Query string: LD50 lookup needed for CCOC(=O)C(C)(C)Oc1ccc(Cl)cc1 [Clofibrate] , thanks.
Result string: 2500

---

# method description: Maximal tolerated dose on chronic administration in the rat
# measurement setup: in vivo
endpoint label: MTD

Query string: MTD lookup needed for CCOC(=O)C(C)(C)Oc1ccc(Cl)cc1 [Clofibrate] , thanks.
Result string: ~100 mg/kg

---

# method description: Acute toxicity after single intraperitoneal administration
# Format: in vivo
# measurement setup: mouse, in vivo, ip, calculated LD 50 (about)
endpoint label: LD50

Query string: LD50 lookup needed for CCOC(=O)C(C)(C)Oc1ccc(Cl)cc1 [Clofibrate] , thanks.
Result string: ~1800 mg/kg
